# Test system: T1, recombinant human VEGF165 (human, UniProt P15692 27-191)
# T1 construct: mature; Isoform VEGF165 of the entry; also called hVEGF165; hVEGF
# T1 sequence (P15692 other isoform, or with tags, fused parts or gaps): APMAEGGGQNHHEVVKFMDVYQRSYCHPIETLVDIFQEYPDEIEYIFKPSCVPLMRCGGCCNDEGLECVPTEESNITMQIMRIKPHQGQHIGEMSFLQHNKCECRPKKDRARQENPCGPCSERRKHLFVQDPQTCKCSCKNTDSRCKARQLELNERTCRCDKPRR
# Assay remarks: Biacore SPR, VEGF immobilized, pH 5
Listed below: koff values for each entry.
Measurement kind: koff (s⁻¹)

# Binder, Measurement kind, Numeric value
records = [
    ("578-min (scFv, also called EP578 min; Protein Nr; 820) scFv: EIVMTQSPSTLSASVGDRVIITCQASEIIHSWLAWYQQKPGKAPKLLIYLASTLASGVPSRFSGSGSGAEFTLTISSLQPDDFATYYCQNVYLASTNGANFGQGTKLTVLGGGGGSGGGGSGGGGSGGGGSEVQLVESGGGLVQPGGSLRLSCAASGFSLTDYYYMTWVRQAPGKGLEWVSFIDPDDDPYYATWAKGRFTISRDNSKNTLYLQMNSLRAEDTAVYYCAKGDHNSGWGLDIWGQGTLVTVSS", "koff", 0.0103),
    ("435-max (scFv, the scFv entry is used; also called Protein Nr; 945) scFv: EIVMTQSPSTLSASVGDRVIITCQASQSIGSSLAWYQQKPGKAPKLLIYTAANLASGVPSRFSGSRSGAEFTLTISSLQPDDFATYYCQNFATSDTVTFGQGTKLTVLGGGGGSGGGGSGGGGSGGGGSEVQLVESGGGLVQPGGSLRLSCKASGFSLNTNYWMCWVRQAPGKGLEWVGCMYTGSYNRAYYASWAKGRFTSSKDTSKNTVYLQMNSLRAEDTAVYYCAKGSNWYSDLWGQGTLVTVSS", "koff", 0.000755),
    ("509-max (scFv, VL and VH tied by name; also called Protein Nr; 855) scFv: EIVMTQSPSTLSASVGDRVIITCQASQNIRIWLSWYQQKPGKAPKLLIYKASTLESGVPSRFSGSGSGTEFTLTISSLQPDDFATYYCQNNAHYSTNGGTFGQGTKLTVLGGGGGSGGGGSGGGGSGGGGSEVQLVESGGGLVQPGGSLRLSCTASGFSLSSYYMCWVRQAPGKGLEWVGCLDYVGDTDYASWAKGRFTISKDASKNTVYLQMNSLRAEDTAVYYCARTDDSRGWGLNIWGQGTLVTVSS", "koff", 0.00272),
]

Reference for the values: patent US20150274820A1
